meta.source: paper PMC11945486

measured_target: human TAS1R2-WT/TAS1R3-G832R (Homo sapiens, UniProt Q7RTX0+Q8TE23, G832R)
Construct: expressed in transfected cells; host or cells: HEK293T stably expressing Gα16gust44
Sequence (Q8TE23 20-839): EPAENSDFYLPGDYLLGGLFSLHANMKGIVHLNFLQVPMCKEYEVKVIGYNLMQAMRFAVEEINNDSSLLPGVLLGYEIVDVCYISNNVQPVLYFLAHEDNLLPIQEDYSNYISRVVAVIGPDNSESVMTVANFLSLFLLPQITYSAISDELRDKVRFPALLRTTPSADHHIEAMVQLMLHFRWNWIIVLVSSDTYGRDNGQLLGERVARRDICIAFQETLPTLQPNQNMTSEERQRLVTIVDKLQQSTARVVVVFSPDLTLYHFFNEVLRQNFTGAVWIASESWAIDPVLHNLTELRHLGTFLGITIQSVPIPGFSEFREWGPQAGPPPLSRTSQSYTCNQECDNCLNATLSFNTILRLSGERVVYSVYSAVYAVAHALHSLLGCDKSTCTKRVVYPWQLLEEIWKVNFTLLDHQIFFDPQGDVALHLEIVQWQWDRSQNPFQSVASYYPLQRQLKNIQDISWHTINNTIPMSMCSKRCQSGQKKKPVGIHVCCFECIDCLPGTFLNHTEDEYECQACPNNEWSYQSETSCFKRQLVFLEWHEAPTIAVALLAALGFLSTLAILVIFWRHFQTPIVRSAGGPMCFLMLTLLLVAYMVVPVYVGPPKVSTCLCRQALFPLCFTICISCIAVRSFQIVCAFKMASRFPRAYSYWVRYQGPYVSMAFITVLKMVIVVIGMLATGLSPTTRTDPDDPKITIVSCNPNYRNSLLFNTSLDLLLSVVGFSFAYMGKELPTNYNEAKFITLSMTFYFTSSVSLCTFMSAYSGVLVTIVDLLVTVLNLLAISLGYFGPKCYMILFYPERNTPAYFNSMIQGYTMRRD
Sequence (Q7RTX0 21-852 G832R): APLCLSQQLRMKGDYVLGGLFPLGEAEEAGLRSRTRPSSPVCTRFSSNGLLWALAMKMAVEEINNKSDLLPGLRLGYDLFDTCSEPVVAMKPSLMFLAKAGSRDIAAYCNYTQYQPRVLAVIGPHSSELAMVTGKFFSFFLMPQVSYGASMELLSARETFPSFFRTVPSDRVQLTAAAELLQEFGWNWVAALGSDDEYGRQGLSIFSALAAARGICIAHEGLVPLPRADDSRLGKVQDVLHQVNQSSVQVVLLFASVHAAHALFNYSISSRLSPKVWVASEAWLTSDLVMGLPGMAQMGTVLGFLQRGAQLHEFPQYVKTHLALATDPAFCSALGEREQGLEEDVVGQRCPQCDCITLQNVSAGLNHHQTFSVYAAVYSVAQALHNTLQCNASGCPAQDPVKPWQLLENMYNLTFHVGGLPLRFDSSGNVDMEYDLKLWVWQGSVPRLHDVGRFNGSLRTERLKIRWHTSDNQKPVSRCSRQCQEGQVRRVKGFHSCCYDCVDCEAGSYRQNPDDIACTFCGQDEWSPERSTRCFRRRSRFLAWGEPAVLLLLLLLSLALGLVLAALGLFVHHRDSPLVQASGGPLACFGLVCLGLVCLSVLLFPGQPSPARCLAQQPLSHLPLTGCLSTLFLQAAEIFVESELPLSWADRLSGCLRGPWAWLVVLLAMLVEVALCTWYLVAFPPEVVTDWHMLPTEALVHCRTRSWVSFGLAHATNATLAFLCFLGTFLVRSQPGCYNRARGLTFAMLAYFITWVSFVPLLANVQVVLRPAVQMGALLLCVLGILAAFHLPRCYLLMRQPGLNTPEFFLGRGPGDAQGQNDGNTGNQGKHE
protocol: Calcium mobilisation assay, TAS1R2-WT with TAS1R3 variant G832R
Type: cell-based
setup_conditions: maximal signal amplitude
readout_label: Max ΔF/F0

Use these answered entries as a reference point.
{"molecule": "COc1ccc(CCC(=O)c2c(O)cc(O[C@@H]3O[C@H](CO)[C@@H](O)[C@H](O)[C@H]3O[C@@H]3O[C@@H](C)[C@H](O)[C@@H](O)[C@H]3O)cc2O)cc1O [NHDC, neohesperidin dihydrochalcone]", "measured_result": 1.03}
{"molecule": "C=C1C[C@@]23CC[C@H]4[C@@](C)(CCC[C@@]4(C)C(=O)O[C@@H]4O[C@H](CO)[C@@H](O)[C@H](O[C@@H]5O[C@H](CO)[C@@H](O)[C@H](O)[C@H]5O)[C@H]4O[C@@H]4O[C@H](CO)[C@@H](O)[C@H](O)[C@H]4O)[C@@H]2CC[C@]1(O[C@@H]1O[C@H](CO)[C@@H](O)[C@H](O[C@@H]2O[C@H](CO)[C@@H](O)[C@H](O)[C@H]2O)[C@H]1O[C@@H]1O[C@H](CO)[C@@H](O)[C@H](O)[C@H]1O)C3 [Rebaudioside M, rebaudioside M]", "measured_result": 1.38}

(A) COC(=O)[C@H](Cc1ccccc1)NC(=O)[C@H](CC(=O)O)NCCC(C)(C)C
(B) CC1=CC(=O)NS(=O)(=O)O1
Identify the item whose Max ΔF/F0 is the smaller number: A or B Your choice should be expressed through its label.
B
